These data points were gathered from patent US20260209362A1.

- system_under_test: T1, human IL-12Rβ2 (human, UniProt Q99665 24-862)
- T1 construct: Expressed on HEK293T cells transiently transfected with a pcDNA3 plasmid (Genscript clone OHu21785); also called hIL-12RB2; IL-12 receptor β2 subunit
- T1 sequence: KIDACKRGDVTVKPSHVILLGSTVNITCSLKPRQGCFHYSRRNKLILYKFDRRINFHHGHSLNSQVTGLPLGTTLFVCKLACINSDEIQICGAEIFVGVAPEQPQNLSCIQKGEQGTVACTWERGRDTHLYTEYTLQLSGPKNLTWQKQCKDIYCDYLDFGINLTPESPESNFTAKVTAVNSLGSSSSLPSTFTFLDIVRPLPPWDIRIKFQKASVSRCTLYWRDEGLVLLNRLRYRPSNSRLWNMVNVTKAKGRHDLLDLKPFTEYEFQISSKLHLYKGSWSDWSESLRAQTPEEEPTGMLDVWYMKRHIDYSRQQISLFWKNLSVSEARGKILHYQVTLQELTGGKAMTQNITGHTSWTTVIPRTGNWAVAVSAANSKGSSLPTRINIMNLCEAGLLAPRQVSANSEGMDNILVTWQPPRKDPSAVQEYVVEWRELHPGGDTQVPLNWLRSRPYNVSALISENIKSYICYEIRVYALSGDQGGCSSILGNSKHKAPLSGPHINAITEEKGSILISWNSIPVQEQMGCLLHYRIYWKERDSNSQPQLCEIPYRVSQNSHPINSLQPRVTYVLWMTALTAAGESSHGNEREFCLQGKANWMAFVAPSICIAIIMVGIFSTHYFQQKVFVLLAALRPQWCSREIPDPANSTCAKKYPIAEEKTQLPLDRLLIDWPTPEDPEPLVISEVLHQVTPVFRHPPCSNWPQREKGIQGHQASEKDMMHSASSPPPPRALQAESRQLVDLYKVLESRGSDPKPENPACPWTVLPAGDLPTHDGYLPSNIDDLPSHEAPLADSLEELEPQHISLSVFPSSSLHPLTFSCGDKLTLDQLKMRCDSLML
- experiment_notes: flow cytometry, P.E. on transfected HEK293T cells
reported_endpoint: % cells bound

anti-IL-12Rβ2 VHH clone 2CRH33 (VHH, not shown: small tags and cut ends, periplasmic extract; also called 20363) VHH: QVQLQESGGGSVQPGWSLRLTCAASGFTFSTSGMHWFRQAPGKGLEWVSSISSGGGDTYYTDSVKGRITISRDNAKNTLYLQLNDLKSEDTAVYYCSKDPSGATRGQGTQVTVSS ... 44.8%

# input for lookup
INPUT: Quick one: give measured % cells bound for anti-IL-12Rβ2 VHH clone 3CRHS148 (VHH, not shown: small tags and cut ends, periplasmic extract) VHH: QVQLQESGGGLVQPGGSLRLSCIASGSIFSIYNMDWYRQAPGNQREWVASITPSGDPYYDDSAKGRFTISRDNAKMTVYLQMNSLKPEDTAVYYCKVPTEKGNYWGQGTQVTVSS
OUTPUT: 42%
